B1: PSD2 (parent)
chain: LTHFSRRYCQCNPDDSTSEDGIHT

# Variants of: B1
# ASSAY_SUMMARY: protein stability index of a GFP-peptide fusion (GPS, HEK-293T) (PSI 1-6); higher = more stable;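 also: lentivirally expressed fusions sorted by FACS into six bins by GFP to DsRed ratio, PSI derived from sequencing read proportions per bin multiplied by bin number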
# CONDITION_CONTEXT: c terminus: a fixed tail appended
MEASUREMENT_NAME: protein stability index
API doc: respond with a numeric literal and nothing else, no unit.

Consider the following illustrative entries.
• C11S = 4.61
• G21M = 2.86
• L1Y = 1.62
• T24F = 2.08
• R7E = 4.43

Exercise: What value of protein stability index has been reported for the following variant? "I22N"
Key: 3.98

Exercise: Quick one: protein stability index for "D20H" ?
Key: 2.99

Exercise: State the recorded protein stability index for this entry: "Y8K"
Key: 3.66

Exercise: Please give the measured protein stability index for this variant: "S5C"
Key: 2.71

Exercise: What value of protein stability index has been reported for the following variant? "Q10R"
Key: 2.24

Exercise: Fill in the blank: the reported protein stability index of "D14L" is ____.
Key: 2.13

Exercise: Please look up its protein stability index: "D20M"
Key: 2.65

Exercise: Please report the recorded protein stability index for "H23L" .
Key: 3.73

Exercise: // protein stability index lookup, key: "H3N"
Key: 3.55
